Assay: Liquid-liquid phase separation by optical microscopy
Format: physicochemical
Conditions: various pH and salt (NaCl) concentration
Experimental: In Example 2 below, phase separation behavior of protein variants and peptides was studied using a Zeiss Axio Scope A1 microscope (Carl Zeiss Pte Ltd., Germany) in the reflection mode, with differential interference contrast (DIC) filters. […] Liquid-liquid phase separation properties of protein variants and peptides at different buffer conditions were assessed using the method described in (Tan et al, Nat. Chem. Biol. 11, 488-495). […]
recorded-endpoint: ability to undergo LLPS / phase separation

For record V4-N: N-terminus fragment of DgHBP-1 Lys mutant after trypsin cleavage (protein, HBP-1 derived peptide V4-N, N-terminus fragment of DgHBP-1 Lys mutant after trypsin cleavage) MQLYGAPAVGGVVENAVNAAESGAAATHDAQGAYAEADTAGVLDVNHAEHHDGVHDASGYGFGGLAGHGGFAGHGLYGPGFAGHGLLGAGYAGLGLHK the listed ability to undergo LLPS / phase separation is could not be induced

For record V3-N: N-terminus fragment of DgHBP-1 Lys mutant after trypsin cleavage (protein, HBP-1 derived peptide V3-N, N-terminus fragment of DgHBP-1 Lys mutant after trypsin cleavage) MQLYGAPAVGGVVENAVNAAESGAAATHDAQGAYAEADTAGVLDVNHAEHHDGVHDASGYGFGGLAGHGGFAGHGLYGPGFAGHGLLGAGYAGLGLHGAGFAK the listed ability to undergo LLPS / phase separation is could not be induced
